Data credit: the CombiSolv-Exp solvation set (Vermeire and Green 2021)

- Test protocol: solvent given as SMILES
- Conditions: in CCCCCCCCCCCCCCCC
# thresholds on solvation free energy, 298 K define classes: L: < -4 kcal/mol; M: ≥ -4 kcal/mol and < -3 kcal/mol; H: ≥ -3 kcal/mol

{"Smiles": "C[N+](=O)[O-]", "Assigned category": "H"}
{"Smiles": "N#CCc1ccccc1", "Assigned category": "L"}
{"Smiles": "CCCCCC", "Assigned category": "M"}
{"Smiles": "CC(C)C(C)C", "Assigned category": "M"}
{"Smiles": "CC(=O)OC(C)C", "Assigned category": "M"}
{"Smiles": "CNc1ccccc1", "Assigned category": "L"}
{"Smiles": "CCCCC(C)=O", "Assigned category": "L"}
{"Smiles": "BrCBr", "Assigned category": "M"}
{"Smiles": "CC#N", "Assigned category": "H"}
{"Smiles": "CCOC(C)=O", "Assigned category": "M"}
{"Smiles": "O=Cc1ccccc1", "Assigned category": "L"}
